Entries annotated with measured % Inhibition of PI3K p85 mRNA levels
# System: human PI3K p85 RNA
# procedure-text: Inhibition of human PI3K p85 mRNA levels by antisense oligonucleotides, real-time quantitative PCR
# Format: cell-based
# measurement-parameters: chimeric phosphorothioate oligonucleotides with 2′-MOE wings and deoxy gap, oligonucleotide 150 nM, averaged from two experiments
# Description: Cells were harvested 16 hours after oligonucleotide treatment. Poly(A)+ mRNA was isolated according to Miura et al., Clin. Chem., 1996, 42, 1758-1764. Other methods for poly(A)+ mRNA isolation are taught in, for example, Ausubel, F. M. et al., Current Protocols in Molecular Biology, Volume 1, pp. 4.5.1-4.5.3, John Wiley & Sons, Inc., 1993. […] Data were obtained by real-time quantitative PCR as described in other examples herein and are averaged from two experiments. […]
Strand notation (5' to 3'): a small letter for the sugar, then the base; units joined by * are phosphorothioate-linked, units joined directly phosphodiester-linked; [ ] holds rarer units or linkages, { } end groups; capitals alone tell only the bases. e = 2'-O-(2-methoxyethyl) (MOE); [5mC] = 5-methylcytosine; d = 2'-deoxy (DNA)

Given 28041 (antisense e[5mC]*e[5mC]*eA*e[5mC]*dC*dA*dC*dT*dA*dC*dA*dG*dA*dG*e[5mC]*eA*eG*eG) [compound 28041] , state its recorded % Inhibition of PI3K p85 mRNA levels.
38%

###

# System: human PI3K p85 RNA
# procedure-text: Inhibition of human PI3K p85 mRNA levels by antisense oligonucleotides, real-time quantitative PCR
# Type: cell-based
# measurement-parameters: chimeric phosphorothioate oligonucleotides with 2′-MOE wings and deoxy gap, oligonucleotide 150 nM, averaged from two experiments
Strand notation (5' to 3'): a small letter for the sugar, then the base; units joined by * are phosphorothioate-linked, units joined directly phosphodiester-linked; [ ] holds rarer units or linkages, { } end groups; capitals alone tell only the bases. e = 2'-O-(2-methoxyethyl) (MOE); [5mC] = 5-methylcytosine; d = 2'-deoxy (DNA)
% Inhibition of PI3K p85 mRNA levels vs 50%: at or above is true, below is false.

Study these solved cases before continuing.
28031 (antisense e[5mC]*e[5mC]*eG*e[5mC]*dT*dC*dT*dT*dG*dG*dG*dT*dC*dT*eG*eG*e[5mC]*eA) [compound 28031] = false
28050 (antisense eT*eG*eT*e[5mC]*dT*dG*dG*dG*dT*dC*dC*dA*dC*dC*eG*eT*eG*e[5mC]) [compound 28050] = true
28047 (antisense eA*eA*eA*eG*dA*dA*dG*dG*dG*dA*dT*dA*dA*dG*e[5mC]*eA*e[5mC]*eT) [compound 28047] = false
28055 (antisense eA*eA*e[5mC]*eT*dG*dA*dA*dA*dT*dA*dA*dC*dA*dA*e[5mC]*eT*eT*eA) [compound 28055] = false
28049 (antisense e[5mC]*e[5mC]*eA*eG*dG*dC*dT*dA*dA*dA*dC*dC*dA*dG*eG*e[5mC]*eT*eG) [compound 28049] = false
28024 (antisense eG*eG*e[5mC]*eT*dG*dC*dT*dG*dA*dG*dA*dA*dT*dC*eT*eG*eA*eA) [compound 28024] = true
28054 (antisense e[5mC]*e[5mC]*eT*eT*dC*dA*dG*dC*dA*dA*dA*dA*dC*dA*eA*eA*eA*e[5mC]) [compound 28054] = false
28036 (antisense eT*e[5mC]*eA*eA*dC*dT*dT*dC*dT*dT*dT*dT*dG*dC*e[5mC]*eG*eA*eA) [compound 28036] = true

Note: attention shifts to another entry.
% Inhibition of PI3K p85 mRNA levels >= 50% for 28039 (antisense e[5mC]*eT*eT*eT*dG*dT*dT*dT*dC*dG*dG*dT*dT*dG*e[5mC]*eT*eG*e[5mC]) [compound 28039] ?
false

Origin of measurements: patent US20040077580A1
